System: Jurkat
ASSAY_REMARKS: Inhibition of TNF-alpha-induced necroptosis in FADD-deficient Jurkat T cells
Format: functional, cell-based, Homo sapiens
CONDITION_DETAILS: Homo sapiens, Jurkat
# label = true (1) if EC50 < 1000 nM else false (0)

1) COc1ccc(-n2c(SCCO)nc3sc4c(c3c2=O)CCC4)cc1 = false (0)
2) COc1ccc(-n2c(SC)nc3sc4c(c3c2=O)CCCC4)cc1 = true (1)
3) CSc1nc2sc(C)c(C)c2c(=O)n1-c1ccc2c(c1)OCO2 = false (0)
4) COc1ccc(-n2c(SCCC#N)nc3sc4c(c3c2=O)CCCC4)cc1 = false (0)
5) COc1ccc(-n2c(SC)nc3sc4ccccc4c3c2=O)cc1 = true (1)
6) N#CCSc1nc2sc3ccccc3c2c(=O)n1-c1ccc2c(c1)OCO2 = true (1)
7) COc1cccc(-n2c(SCC#N)nc3sc4c(c3c2=O)CCCC4)c1 = false (0)
8) Cc1sc2nc(SCC#N)n(-c3ccc4c(c3)OCCO4)c(=O)c2c1C = true (1)
9) COc1ccc(-n2c(SCC#N)nc3sc(C)c(C)c3c2=O)cc1 = true (1)
10) COc1ccccc1-n1c(SCC#N)nc2sc3c(c2c1=O)CCCC3 = false (0)
11) Cc1sc2nc(SCC#N)n(-c3ccc(F)cc3)c(=O)c2c1C = false (0)
12) CCc1sc2nc(SCC#N)n(-c3ccc(OC)cc3)c(=O)c2c1C = false (0)
13) COc1ccc(-n2c(SCC#N)nc3sc4c(c3c2=O)CCC4)cc1 = true (1)
14) COc1ccc(-n2c(SCC#N)nc3sc4c(c3c2=O)CCCC4)cc1 = true (1)
15) COc1ccc(-n2c(SC)nc3sc4c(c3c2=O)CCC4)cc1 = true (1)
16) COc1ccc(-n2c(SCCl)nc3sc4c(c3c2=O)CCCC4)cc1 = false (0)
17) CSc1nc2sc3c(c2c(=O)n1-c1ccc(F)cc1)CCCC3 = false (0)
18) CCc1c(C)sc2nc(SCC#N)n(-c3ccc(OC)cc3)c(=O)c12 = false (0)
19) CCc1c(C)sc2nc(SCC#N)n(-c3ccc4c(c3)OCO4)c(=O)c12 = false (0)
20) N#CCSc1nc2sc3ccccc3c2c(=O)n1-c1ccc(F)cc1 = false (0)
21) Cc1sc2nc(SCC#N)n(-c3ccc4c(c3)OCO4)c(=O)c2c1C = false (0)
22) CSc1nc2sc3c(c2c(=O)n1-c1ccc(C)c(C)c1)CCCC3 = false (0)
23) Cc1ccc(-n2c(SCC#N)nc3sc(C)c(C)c3c2=O)cc1C = false (0)
24) N#CCSc1nc2sc3c(c2c(=O)n1-c1ccc(OC(F)(F)F)cc1)CCC3 = false (0)
25) COc1ccc(-n2c(SCC#N)nc3sc4ccccc4c3c2=O)cc1 = true (1)
26) COc1ccc(-n2c(SCCO)nc3sc(C)c(C)c3c2=O)cc1 = false (0)
27) N#CCSc1nc2sc3c(c2c(=O)n1-c1ccc2c(c1)OCO2)CCCC3 = true (1)
28) N#CCSc1nc2sc3c(c2c(=O)n1-c1ccc(Cl)cc1)CCCC3 = false (0)
29) N#CCSc1nc2sc3c(c2c(=O)n1-c1ccc2c(c1)OCCO2)CCC3 = true (1)
30) CSc1nc2sc3c(c2c(=O)n1-c1ccc(F)cc1)CCC3 = false (0)
31) Cc1sc2nc(SCC#N)n(-c3ccc(OC(F)(F)F)cc3)c(=O)c2c1C = false (0)
32) Cc1ccc(-n2c(SCC#N)nc3sc4c(c3c2=O)CCCC4)cc1C = false (0)
33) N#CCSc1nc2sc3c(c2c(=O)n1-c1ccc(Cl)c(Cl)c1)CCCC3 = false (0)
34) C#CCSc1nc2sc3c(c2c(=O)n1-c1ccc(OC)cc1)CCCC3 = false (0)
35) CSc1nc2sc3ccccc3c2c(=O)n1-c1ccc(F)cc1 = false (0)
36) N#CCSc1nc2sc3c(c2c(=O)n1-c1ccc2c(c1)OCO2)CCC3 = false (0)
37) Cc1ccc(-n2c(SCC#N)nc3sc4c(c3c2=O)CCCC4)cc1 = false (0)
38) CCOc1ccc(-n2c(SCC#N)nc3sc4c(c3c2=O)CCCC4)cc1 = true (1)
39) CCOc1ccc(-n2c(SCC#N)nc3sc(C)c(C)c3c2=O)cc1 = false (0)
40) CSc1ccc(-n2c(SCC#N)nc3sc4c(c3c2=O)CCCC4)cc1 = false (0)
41) C#CCSc1nc2sc(C)c(C)c2c(=O)n1-c1ccc(OC)cc1 = false (0)
42) N#CCSc1nc2sc3c(c2c(=O)n1-c1cccc(Cl)c1)CCCC3 = false (0)
43) N#CCSc1nc2sc3ccccc3c2c(=O)n1-c1ccc2c(c1)OCCO2 = true (1)
44) N#CCSc1nc2sc3c(c2c(=O)n1-c1ccc2c(c1)OCCO2)CCCC3 = true (1)
45) COc1ccc(-n2c(SCC#N)nc3c(c2=O)C2CCCCCC2S3)cc1 (stereo unspecified) = true (1)
46) CSc1nc2sc(C)c(C)c2c(=O)n1-c1ccc(F)cc1 = false (0)

Recorded values, source ChEMBL document CHEMBL1139128.
